Heads up, these molecules all have pIC50 values measured for Heat shock protein HSP 90-beta (Homo sapiens, UniProt P08238).
pIC50: −log10 of the molar value.

Provide value of pIC50 for this record tested with Heat shock protein HSP 90-beta (Homo sapiens, UniProt P08238): CC[N+](C)(C)CCOc1ccc2c(c1)CN(C(=O)c1ccc(O)c(Sc3ccc(C)c(C)c3)c1)C2
Sequence (P08238 whole entry): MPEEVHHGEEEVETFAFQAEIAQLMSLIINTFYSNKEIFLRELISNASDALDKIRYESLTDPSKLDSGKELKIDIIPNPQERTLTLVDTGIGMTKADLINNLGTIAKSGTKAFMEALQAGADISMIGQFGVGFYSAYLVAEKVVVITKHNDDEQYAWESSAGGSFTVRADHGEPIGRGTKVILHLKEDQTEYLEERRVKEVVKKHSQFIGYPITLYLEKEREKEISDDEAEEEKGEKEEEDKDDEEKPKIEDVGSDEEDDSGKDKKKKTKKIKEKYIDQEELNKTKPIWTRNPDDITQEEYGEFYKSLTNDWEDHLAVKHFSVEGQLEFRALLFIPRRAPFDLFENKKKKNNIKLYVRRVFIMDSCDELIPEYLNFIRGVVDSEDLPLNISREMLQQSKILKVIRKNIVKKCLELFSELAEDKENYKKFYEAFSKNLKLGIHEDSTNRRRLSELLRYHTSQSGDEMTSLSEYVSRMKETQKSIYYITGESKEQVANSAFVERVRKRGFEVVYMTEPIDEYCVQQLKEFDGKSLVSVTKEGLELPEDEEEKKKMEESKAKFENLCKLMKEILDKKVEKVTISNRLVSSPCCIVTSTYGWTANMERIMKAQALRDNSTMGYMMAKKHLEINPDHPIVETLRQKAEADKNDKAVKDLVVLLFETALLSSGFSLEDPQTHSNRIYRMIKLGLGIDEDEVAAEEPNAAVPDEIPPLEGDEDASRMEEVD
5.08

Can you handle Cc1ccc(Sc2cc(C(=O)N3Cc4ccc(OCC[N+](C)(C)C)cc4C3)ccc2O)cc1C.O=C([O-])C(F)(F)F next?
< 4.00

Can you handle Cc1ccc(Sc2cc(C(=O)N3Cc4ccc(OCCC[N+](C)(C)C)cc4C3)ccc2O)cc1C.O=C([O-])C(F)(F)F next?
< 4.00

Can you handle Cc1ccc(Sc2cc(C(=O)N3Cc4ccc(OCCCC[N+](C)(C)C)cc4C3)ccc2O)cc1C next?
< 4.00

Can you handle Cc1ccc(Sc2cc(C(=O)N3Cc4ccc(OCC[N+](C)(C)Cc5ccccc5)cc4C3)ccc2O)cc1C next?
< 4.00

Can you handle Cc1ccc(Sc2cc(C(=O)N3Cc4ccc(OCCN(C)C)cc4C3)ccc2O)cc1C next?
4.02

Can you handle Cc1ccc(Sc2cc(C(=O)N3Cc4ccc(OCCCN(C)C)cc4C3)ccc2O)cc1C next?
< 4.00

Can you handle CC[N+](C)(C)CCCCOc1ccc2c(c1)CN(C(=O)c1ccc(O)c(Sc3ccc(C)c(C)c3)c1)C2 next?
< 4.00

Can you handle CC[N+](C)(C)CCCOc1ccc2c(c1)CN(C(=O)c1ccc(O)c(Sc3ccc(C)c(C)c3)c1)C2.O=C([O-])C(F)(F)F next?
< 4.00

Can you handle Cc1ccc(Sc2cc(C(=O)N3Cc4ccc(OCCC[N+](C)(C)Cc5ccccc5)cc4C3)ccc2O)cc1C.O=C([O-])C(F)(F)F next?
< 4.00

# credit: ChEMBL document CHEMBL5365518
